Attribution: PubChem BioAssay (NCI)

- System: HS 578T breast
- Test name: NCI tumour cell line growth inhibition, 48 h
Would you mind telling me the reported TGI of each entry?

So what does the record say about TGI for CC(C)CCC[C@@H](C)[C@H]1CC[C@H]2[C@@H]3CC[C@H]4C[C@@H](CCC=C(c5cc(Cl)c(O)c(C(=O)O)c5)c5cc(Cl)c(O)c(C(=O)O)c5)CC[C@]4(C)[C@H]3CC[C@]12C ?
> 100 µM

TGI lookup needed for CCOC(=O)c1[nH]c(-c2[nH]c(-c3[nH]c(-c4[nH]c(C(=O)OCC)c(C)c4C(=O)OCC)c(C(=O)OCC)c3C)c(C)c2C(=O)OCC)c(C(=O)OCC)c1C , thanks.
> 100 µM

# get_value(readout='TGI', item= O=C1c2cc(Cl)ccc2NC(=NC2CCCC2)C2CSCN12 (centres undefined) )
> 100 µM

// returns reported TGI for input COc1c(/C=C/C(C)(C)O)cc(C2CC(=O)c3c(O)cc(O)cc3O2)cc1CC=C(C)C (centres undefined)
24.9 µM

Item CN(Cc1cnc2nc(N)nc(N)c2n1)c1ccc(C(=O)N[C@@H](CCC(=O)O)C(=O)O)cc1 has what recorded TGI?
> 250 µM

Requested read-out: TGI. Entry: Cc1cnc2sn(-c3ccc([N+](=O)[O-])cc3)c(=O)c2c1
> 100 µM

Look up TGI for this compound: [O-][N+](=Nc1ccccc1CO)c1ccccc1CO
> 100 µM

Could you share which TGI value was measured for CO/N=C(/C)c1cccc(Nc2nc3ccccc3c3[nH]c4ccccc4c23)c1 ?
35.8 µM

Record request: TGI value, item O=S(=O)(Nc1nc2ccccc2nc1Nc1ccc2ccccc2c1)c1ccccc1
> 74.5 µM

Sample O=C(c1nc2ccc([N+](=O)[O-])cc2[nH]c1=O)C(O)c1ccc2c(c1)OCO2 (centres undefined) — what was its TGI?
> 100 µM

Give its TGI value. Item: CCOC(=O)C(Cc1c[nH]c2c(N(CCO)CCO)cccc12)(NC(C)=O)C(=O)OCC
> 1000 µM

Fill in: TGI of COC(=O)c1cc2c3ccccc3n3c(=O)c4cc5ccc(N(S(=O)(=O)c6ccc(C)cc6)S(=O)(=O)c6ccc(C)cc6)cc5nc4c(n1)c23 is ___
> 100 µM

What does the data say about its TGI? Entry: CS(=O)(=O)OCCN(CCOS(C)(=O)=O)c1ccc(C=Nc2cccc(Cl)c2)cc1
98.9 µM

So what does the record say about TGI for Nc1[nH]nc(Nc2ccc(Cl)cc2)c1P(=O)(c1ccccc1)c1ccccc1 ?
37.2 µM

# query: TGI of entry COc1ccc(/C=C/C(=O)/C=C/c2cc3ccccc3[nH]c2=O)cc1
47 µM

Consider the compound shown here: COc1cc2ncn(-c3cc(OCc4ccccc4C(F)(F)F)c(C(=O)N(C)C)s3)c2cc1OC What is its recorded TGI?
> 25 µM

If you can, please state the reported TGI value of Cc1cc2/c(=C\c3ccc(N(C)C)cc3)c3ccccc3n2[n+]1C .
8.95 µM

Item Cn1c(C(=O)c2ccncc2)cc2ccccc21 has what recorded TGI?
> 100 µM

Entry under review: CCN1CCC(O)(c2ccc(Oc3ccc(F)cc3)cc2)C(C(=O)c2ccc(Oc3ccc(F)cc3)cc2)C1 (centres undefined) . Reported TGI?
38.4 µM

TGI lookup needed for Cc1nc(-c2ccccc2)n2nc(NCCCN3CCOCC3)ncc12 , thanks.
> 25 µM

Fill blank: measured TGI of the compound COc1ccc(-n2[nH]nc(C(N)=O)c2=O)cc1 is ____.
> 100 µM

Please give the measured TGI for this compound: O=C(O)C(O)C(O)C(=O)O (centres undefined)
> 100 µM

Would you kindly share the measured TGI for O=C(NCCN1CCOCC1)c1cn2c(ccc3sc4ccccc4c(=O)c32)n1 ?
47.3 µM

Please report the recorded TGI for CC(NC(=O)NC(C)(C)C)NC(=O)C(N)CC(=O)O (centres undefined) .
> 100 µM

I would be grateful if you could share the reported TGI for COc1cc(C(C)O)c(S(=O)(=O)CC(C)O)nn1 (centres undefined) .
> 100 µM

Given the compound COc1cccc(/C(C#N)=C/c2nc3c(N4CCOCC4)nc(Cl)nc3n2C)c1 , what is its reported TGI?
5.88 µM

What does the record list as TGI for COc1cc(F)c(F)c(Nc2ccc(I)cc2F)c1NS(=O)(=O)C1(C[C@H](O)CO)CC1 ?
> 10 µM

Could you tell me which TGI is on file for O=C(O)c1ccc(NCn2nc(-c3ccccc3O)oc2=S)cc1 ?
> 100 µM

Consider the compound shown here: COc1ccc(C2OC(=O)c3ccc4ccccc4c32)c(C)c1 (centres undefined) What is its recorded TGI?
45.2 µM

Returns the measured TGI for the input compound. Input: CN1C/C(=C\c2cccs2)C(O)/C(=C/c2cccs2)C1 (centres undefined)
> 100 µM

What does the record list as TGI for O=CNNC(=O)Nc1cccc2ccccc12 ?
> 100 µM

Which TGI is reported for this compound? C[C@@H]1C[C@H](C)CN(S(=O)(=O)c2ccc3c(NO)c4ccc(S(=O)(=O)N5C[C@H](C)C[C@H](C)C5)cc4c(N=O)c3c2)C1
0.422 µM

Requested field: TGI. Item: CSc1ccc(-c2cc(-c3nc4ccccc4[nH]3)no2)cc1
> 100 µM

Reported TGI for O=C(O)CCC(=O)c1ccc2c(c1)C(C(=O)O)CC2 (centres undefined) : what is it?
> 100 µM

// lookup TGI for Cn1c2ccccc2c2c3c(c4c5ccccc5n(C)c4c21)C(=O)NC3=O
> 72.6 µM

Recorded TGI for COc1ccc(-c2cs/c(=N\N=C\c3ccc(O)cc3O)n2/N=C/c2ccc(O)cc2O)cc1 , please?
7.36 µM

So what's the measured TGI for this one? CN(CCCCCl)P(=O)(OCCS(=O)(=O)CC(NC(=O)CCC(N)C(=O)O)C(=O)NC(C(=O)O)c1ccccc1)OCC1OC(n2ccc(N)nc2=O)C(F)(F)C1O (centres undefined)
> 100 µM

Reported TGI for CC(=N\N)/C(C)=N/N=C(C)/C(C)=N/N : what is it?
> 100 µM

Can you share its TGI? I mean this compound: CCOC(=O)c1sc(-c2ccc(OS(=O)(=O)c3ccccc3[N+](=O)[O-])c(C=O)c2)nc1C
> 100 µM

* * *

- System: COLO 205 colon
- Test name: NCI tumour cell line growth inhibition, 48 h
Could you please report measured TGI for the items listed next?

Which measured TGI value corresponds to CC1=CC(=O)CC2(C)CC[C@@H]3C[C@]12OC3(C)C (stereo not given in full) ?
> 100 µM

Return reported TGI; argument: CN(C(=O)C12C3C4C5C3C1(C(=O)C13C6C7C8C6C1C8C73)C5C42)C(C)(C)C (stereo not given)
> 50 µM

Need TGI of CC1(C)OC2[C@@H](CO[C@@]3([C@@H](O)CCO)OC(C)(C)O[C@@H]23)O1 (stereo not given in full) , thanks.
> 100 µM

Which measured TGI value corresponds to CCOC(=O)C(Cc1c[nH]c2c(N(CCO)CCO)cccc12)(NC(C)=O)C(=O)OCC ?
> 1000 µM

Item COc1ccc(C2OC(=O)c3ccc4ccccc4c32)c(C)c1 (stereo not given) has what recorded TGI?
> 35.1 µM

Fill in: TGI of C#C/C=C\CCCC/C=C\C#CC#CCCCC#CC#C[C@H](COS(=O)(=O)O)OS(=O)(=O)O is ___
> 100 µM

// query TGI value for entry CCNc1cc(-c2cccc(OC(F)(F)F)c2)nc2ccc(N3CCCC3)cc12
4.21 µM

Value lookup for TGI; key = NC1=C(NC(=O)Cc2ccccc2F)C(=O)c2ccccc2C1=O
> 100 µM

TGI for NC(=S)/N=C(/c1nc2ccc(Cl)cc2[nH]c1=O)C(O)c1ccccc1Cl (stereo not given) ?
> 100 µM

Entry under review: c1cc2c(cc1NC1=NCCO1)OCO2 . Reported TGI?
> 100 µM

* * *

Kindly state TGI for each of the entries shown.
- Test system: UO-31 renal
- Test name: NCI tumour cell line growth inhibition, 48 h

What does the data say about its TGI? Entry: COc1ccc(/C=C/C(=O)/C=C/c2cc3ccccc3[nH]c2=O)cc1
17.9 µM

Tell me the measured TGI of O=C1CC(c2ccccc2)C2(C(=O)NC(=S)NC2=O)C(c2ccccc2)C1 (stereo not given) , please.
> 75 µM

I would be grateful if you could share the reported TGI for CCCC(CCC(N)=O)(CCC(N)=O)[N+](=O)[O-] .
> 100 µM

For the molecule shown here, c1cc2c(cc1NC1=NCCO1)OCO2 , give the reported TGI.
> 100 µM

GET /values?readout=TGI&item= O=C1CC2CC3OC3[C@H]3c4cc5c(cc4C(=O)N1C23)OCO5 (stereo not given in full)
> 100 µM

# lookup: TGI of OC1(c2ccc(-c3ccccc3)cc2)c2ccccc2C2=NCCN21 (stereo not given)
> 100 µM

// query TGI value for entry COC(=O)c1ccc(/C=C2\Oc3ccccc3C2=O)cc1
> 100 µM

For the molecule COc1cc(OC)c(C(=O)/C=C/c2cc3c(cc2OCc2ccccc2)OC(C)(C)CC3)cc1CC=C(C)C , what TGI is on record?
> 25 µM

What does the record list as TGI for CCOc1ccc2[nH]c3c(C)c4ccncc4c(C)c3c2c1 ?
13.9 µM

// lookup TGI for COc1ccc2cc(/C=C/C(=O)c3ccc(Cl)cc3Cl)ccc2c1
> 100 µM

Looking for the measured TGI of O=S(=O)(NCCNc1nccc(-c2c(-c3ccc(F)c(O)c3)nc3sccn23)n1)c1ccc(F)cc1 , can you help?
15.1 µM

Which value of TGI has been reported for CN(C)c1ccc(/C=C2\N=C(NNc3ccccc3)NC2=O)cc1 in the records?
> 100 µM

Record request: TGI value, item COc1ccc(N=NC(C(=O)c2ccccc2)C(=O)c2ccccc2)cc1
51.7 µM

Entry O=[N+]([O-])c1ccc2c(c1)N([O-])C1(CCCCC1)[N+]2=O : reported TGI = ?
33.7 µM

Look at this molecule and give its reported TGI. CC(Oc1ccc2c(-c3ccccc3)cc(=O)oc2c1)C(=O)O (stereo not given)
> 100 µM

Reported TGI, molecule COc1cc(C(C)O)c(S(=O)(=O)CC(C)O)nn1 (stereo not given) : ____
> 100 µM

Would you kindly share the measured TGI for C=C1C(=O)O[C@H]2C[C@@]3(COC(C)=O)C=COC=C(COC(=O)C(C)C)C3CC12 (stereo not given in full) ?
> 100 µM

Please look up its TGI: COC(=O)C1C(O)CCC2CN3CCc4c([nH]c5ccccc45)C3CC21 (stereo not given)
> 100 µM

Quick check: TGI of O=S(=O)(O)c1cc(N=Nc2c(O)ccc3ccccc23)ccc1/C=C/c1ccc(N=Nc2c(O)ccc3ccccc23)cc1S(=O)(=O)O ?
> 100 µM

For the molecule shown here, CO/N=C(/C)c1cccc(Nc2nc3ccccc3c3[nH]c4ccccc4c23)c1 , give the reported TGI.
22.1 µM

Could you share which TGI value was measured for COc1ccc(OC)c(NC(=O)CCC/C(CC(=O)c2ccc(O)c(OC)c2)=N\Nc2nnc(C)n2N)c1 ?
> 100 µM

What measured TGI goes with COc1ccccc1C#Cc1ccccc1C#CCCCCO ?
32.8 µM

I'd like to know its TGI. The molecule in question is CCOC(=O)Nc1nc2ccc(OC)cc2s1
> 100 µM

Given CCCNC(=O)C1C(=O)C(=O)N(CCC)C1=O (stereo not given) , state its recorded TGI.
> 100 µM

Recorded TGI of CC(=O)OC12C3C4C1C1C2C3C41OC(C)=O (stereo not given) , please.
> 100 µM

Item under review: CSc1ccc(-c2cc(-c3nc4ccccc4[nH]3)no2)cc1 . Reported TGI?
43.5 µM

Look up TGI: COc1cc2c(c(OC)c1OC)-c1ncc3c(OC)c(OC)c(OC)cc3c1C2
47.2 µM

Which TGI value belongs to COC(=O)C1Cc2cc3c(cc2C1=O)CCCC3 (stereo not given) ?
> 100 µM

Consider the molecule CN(CCCCCl)P(=O)(OCCS(=O)(=O)CC(NC(=O)CCC(N)C(=O)O)C(=O)NC(C(=O)O)c1ccccc1)OCC1OC(n2ccc(N)nc2=O)C(F)(F)C1O (stereo not given) and give its measured TGI.
2.7 µM

Fill in the blank: the reported TGI of COc1ccc(NC(=O)CC2SC(=Nc3ccccc3C)NC2=O)c([N+](=O)[O-])c1 (stereo not given) is ____.
> 100 µM

Form field: reported TGI of Cc1nn[n-]n1.N.N.N.N.N.[Cl-].[Co+3]
> 100 µM

Bench note: what TGI did CC[C@H](Nc1ncnc2nc[nH]c12)c1nc2cccc(F)c2c(=O)n1-c1ccccc1 show?
> 68.7 µM

Can you look up the measured TGI of CN(C(=O)C12C3C4C5C3C1(C(=O)C13C6C7C8C6C1C8C73)C5C42)C(C)(C)C (stereo not given) for me?
> 50 µM

Give the measured TGI of CN1CN(c2ccccc2)C2(CCN(CC(C)(c3ccc(F)cc3)C3OCCCO3)CC2)C1=O (stereo not given) .
11 µM

Reported TGI, molecule CCNc1cc(-c2cccc(OC(F)(F)F)c2)nc2ccc(N3CCCC3)cc12 : ____
2.71 µM
